Measured values drawn from paper PMC10804683 for this set.

study target: human PNPO F48A/E50L/H248N/R258L variant (holo-enzyme) (Homo sapiens, UniProt Q9NVS9, E50L/F48A/H248N/R258L)
Construct: a main form corresponding to the entire protein
assay overview: PLP binding by FMN fluorescence changes, holo quadruple variant
test parameters: 100 nM enzyme, read-out: PLP binding KD^FLUO
quantity kind: Kd (µM)

{"molecule": "Cc1ncc(COP(=O)(O)O)c(C=O)c1O [PLP, pyridoxal 5′‐phosphate]", "value": 2.85}

###

study target: human PNPO 1-31del variant (Homo sapiens, UniProt Q9NVS9)
Construct: a main form corresponding to the entire protein
Sequence (Q9NVS9 32-261): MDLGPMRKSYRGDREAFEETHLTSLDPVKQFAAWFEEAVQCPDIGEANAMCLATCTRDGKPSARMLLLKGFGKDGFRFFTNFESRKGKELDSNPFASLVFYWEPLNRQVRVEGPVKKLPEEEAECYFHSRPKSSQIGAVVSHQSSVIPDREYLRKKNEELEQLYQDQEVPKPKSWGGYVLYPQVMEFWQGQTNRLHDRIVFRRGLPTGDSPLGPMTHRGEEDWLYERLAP
assay overview: PLP binding by DSF, 1-31del
test parameters: 50 mM Na-HEPES pH 7.6, 2 μM enzyme

{"molecule": "Cc1ncc(COP(=O)(O)O)c(C=O)c1O [PLP, pyridoxal 5′‐phosphate]", "measure unit": "µM", "Kd": 3}

###

study target: human PNPO F48A variant (holo-enzyme) (Homo sapiens, UniProt Q9NVS9, F48A)
Construct: a main form corresponding to the entire protein
assay overview: PLP binding by FMN fluorescence changes, holo F48A
test parameters: 100 nM enzyme, read-out: PLP binding KD^FLUO
quantity kind: Kd (nM)

{"compound": "Cc1ncc(COP(=O)(O)O)c(C=O)c1O [PLP, pyridoxal 5′‐phosphate]", "study target": "human PNPO F48A variant (holo-enzyme) (Homo sapiens, UniProt Q9NVS9, F48A)", "value": 1460}

###

study target: human PNPO 1-31del variant (holo-enzyme) (Homo sapiens)
Construct: a main form corresponding to the entire protein
assay overview: PLP binding by FMN fluorescence changes, holo 1-31del
test parameters: read-out: PLP binding KD^FLUO
quantity kind: Kd (nM)

{"molecule": "Cc1ncc(COP(=O)(O)O)c(C=O)c1O [PLP, pyridoxal 5′‐phosphate]", "value": 310}

###

study target: apo-PNPO wt (Homo sapiens, UniProt Q9NVS9)
Sequence (Q9NVS9 1-261): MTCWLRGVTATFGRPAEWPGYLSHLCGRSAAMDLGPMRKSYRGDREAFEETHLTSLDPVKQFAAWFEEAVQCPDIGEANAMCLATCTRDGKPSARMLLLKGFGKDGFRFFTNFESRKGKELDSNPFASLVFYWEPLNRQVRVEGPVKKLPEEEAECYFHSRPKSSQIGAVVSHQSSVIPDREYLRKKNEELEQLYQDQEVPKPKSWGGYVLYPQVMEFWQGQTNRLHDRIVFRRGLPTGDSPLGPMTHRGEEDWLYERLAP
pKd: −log10 of the molar value.

{"compound": "Cc1ncc(COP(=O)(O)O)c(C=O)c1O [PLP, pyridoxal 5′‐phosphate]", "pKd": 6.22}

###

study target: human PNPO F48A/E50L/R258L variant (holo-enzyme) (Homo sapiens, UniProt Q9NVS9, E50L/F48A/R258L)
Construct: a main form corresponding to the entire protein
Sequence (Q9NVS9 1-261 F48A/E50L/R258L): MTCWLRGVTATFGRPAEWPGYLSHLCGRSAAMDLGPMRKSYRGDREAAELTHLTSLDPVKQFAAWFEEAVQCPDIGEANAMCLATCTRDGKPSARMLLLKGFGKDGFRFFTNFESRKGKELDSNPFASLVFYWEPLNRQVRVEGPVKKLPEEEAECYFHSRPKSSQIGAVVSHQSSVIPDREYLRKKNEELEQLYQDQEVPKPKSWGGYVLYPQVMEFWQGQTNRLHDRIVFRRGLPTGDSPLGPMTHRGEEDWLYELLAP
assay overview: PLP binding by FMN fluorescence changes, holo triple variant
test parameters: 100 nM enzyme, read-out: PLP binding KD^FLUO

{"compound": "Cc1ncc(COP(=O)(O)O)c(C=O)c1O [PLP, pyridoxal 5′‐phosphate]", "Kd [nM]": 1380}
